system: 786-0 renal; assay: NCI tumour cell line growth inhibition, 48 h; in the data active means GI50 below about 0.43 µM; inactive means the rest
// classify into 1.0 for active, 0.0 for inactive

Consider the following illustrative entries.
c1coc(-c2c3ccc(=[N+]4CCCCC4)cc-3oc3cc(N4CCCCC4)ccc23)c1 :: 1.0
Cc1cc(N/N=C/c2ccccn2)nc2ccccc12 :: 1.0
CCCc1cc(=O)n2c(C(=O)Nc3ccc(Cl)cc3C)c(C(=O)Nc3ccc(F)cc3)sc2n1 :: 0.0

Req: Fill in: this test's call for "ClCCN(CCCl)c1ccc(CNc2ccccc2)cc1" is ___
Resp: 0.0

Req: Follow-up entry: "O=C(Nc1cc(Cl)ccc1O)c1ccc(Nc2ccnc(C(F)(F)F)c2)cc1"
Resp: 0.0

Req: Follow-up entry: "COc1cccc(/C=N/[N-]C(=O)c2ccncc2)c1[O-].COc1cccc(/C=N/[N-]C(=O)c2ccncc2)c1[O-].[O]=[U](=[O])([OH2+])[OH2+]"
Resp: 0.0

Req: Follow-up entry: "CCc1ccc2c(c1)C(=O)c1c-2n(CCCN=[N+]=[N-])c(=O)c2cc([N+](=O)[O-])ccc12"
Resp: 0.0
